target: androgen receptor (rat ventral prostate cytosol) (Rattus norvegicus, UniProt P15207); construct: from tissue; host or cells: ventral prostate of castrated male Sprague Dawley or Wistar rats, cytosol; assay: Androgen Receptor Binding Using Rat Ventral Prostate Cytosol; conditions: rat cytosol; concentration 1000 nM
Sequence (P15207 whole entry S389L): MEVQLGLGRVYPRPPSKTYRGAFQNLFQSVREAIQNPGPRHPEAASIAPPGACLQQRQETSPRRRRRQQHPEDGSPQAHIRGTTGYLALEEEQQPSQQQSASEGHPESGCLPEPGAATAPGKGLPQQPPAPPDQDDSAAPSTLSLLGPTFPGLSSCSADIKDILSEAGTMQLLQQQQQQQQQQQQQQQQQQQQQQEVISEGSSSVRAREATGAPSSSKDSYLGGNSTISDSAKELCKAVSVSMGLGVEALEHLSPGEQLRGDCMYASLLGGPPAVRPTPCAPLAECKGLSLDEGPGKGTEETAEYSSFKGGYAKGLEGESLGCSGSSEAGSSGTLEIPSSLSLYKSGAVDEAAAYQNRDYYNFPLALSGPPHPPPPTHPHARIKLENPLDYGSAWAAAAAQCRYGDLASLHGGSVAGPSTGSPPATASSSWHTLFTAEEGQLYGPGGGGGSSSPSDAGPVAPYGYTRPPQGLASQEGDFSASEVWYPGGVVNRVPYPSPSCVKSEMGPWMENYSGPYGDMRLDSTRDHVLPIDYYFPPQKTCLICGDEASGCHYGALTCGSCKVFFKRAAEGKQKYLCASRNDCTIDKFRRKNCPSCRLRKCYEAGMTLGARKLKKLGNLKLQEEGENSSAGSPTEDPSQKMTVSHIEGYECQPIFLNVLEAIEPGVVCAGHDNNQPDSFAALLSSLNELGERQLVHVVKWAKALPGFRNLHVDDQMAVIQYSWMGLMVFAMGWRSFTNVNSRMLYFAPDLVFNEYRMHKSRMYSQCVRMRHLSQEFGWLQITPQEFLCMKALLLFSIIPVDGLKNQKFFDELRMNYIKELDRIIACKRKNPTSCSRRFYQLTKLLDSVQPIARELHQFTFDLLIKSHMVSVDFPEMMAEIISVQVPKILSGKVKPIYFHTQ
Item-by-item account of inhibition at 1 µM
Kindly provide the numeric value in % only, without the unit symbol.

# structure, experimental-target, experimental-result
records = [
    ("O=[N+]([O-])c1cc2cc(C3(O)CCN(Cc4ccc(Cl)c(Cl)c4)CC3)[nH]c2cc1C(F)(F)F", "androgen receptor (rat ventral prostate cytosol) (Rattus norvegicus, UniProt P15207)", 5.8),
    ("OC1(c2cc3cc(Cl)c(C(F)(F)F)cc3[nH]2)CCN(Cc2ccc(Cl)cc2)CC1", "androgen receptor (rat ventral prostate cytosol) (Rattus norvegicus, UniProt P15207)", 20),
]

Please supply the value of reported inhibition at 1 µM for the item "CC(C)(C)c1ccc(CN2CCC(O)(c3cc4cc(Cl)c(C(F)(F)F)cc4[nH]3)CC2)cc1"
34

Please supply the value of reported inhibition at 1 µM for the item "COc1cccc(CN2CCC(O)(c3cc4cc(Cl)c(C(F)(F)F)cc4[nH]3)CC2)c1"
-1.8

Please supply the value of reported inhibition at 1 µM for the item "COc1ccc(CN2CCC(O)(c3cc4cc(Cl)c(C(F)(F)F)cc4[nH]3)CC2)cc1"
-19

Please supply the value of reported inhibition at 1 µM for the item "CS(=O)(=O)n1c(C2(O)CCN(C(=O)OCc3ccccc3)CC2)cc2cc(Cl)c(C(F)(F)F)cc21"
-55

Please supply the value of reported inhibition at 1 µM for the item "O=C(c1ccc(Cl)cc1)N1CCC(O)(c2cc3cc(Cl)c(C(F)(F)F)cc3[nH]2)CC1"
-83.5
